TEST PROTOCOL: Selectivity index, ratio of IC50 for rat L6 cells to IC50 for intracellular amastigote stage of Trypanosoma cruzi Tulahuen C2C4
Format: toxicity, cell-based
TEST PARAMETERS: read-out: Ratio IC50
REPORTED ENDPOINT: selectivity ratio

Study these solved cases before continuing.
smiles=CS(=O)(=O)c1ccc(C(=O)NC(=O)c2ccccc2O)cc1 reported_endpoint="selectivity ratio" result="> 2"
smiles=O=C(CCCCCCC(=O)Nc1ccc(C(=O)NC(=O)c2ccccc2O)cc1)NO reported_endpoint="selectivity ratio" result="> 2.1"

Below: the item to evaluate.
Enquiry: Which selectivity ratio is reported for this compound? `O=C(NC(=O)c1ccccc1O)c1ccc(-c2ccccc2)cc1`
Return: > 13

###

What selectivity ratio was measured for each of the following?
TEST PROTOCOL: Selectivity index, ratio of IC50 for rat L6 cells to IC50 for axenic amastigote stage of Leishmania donovani MHOM/ET/67/L82
Assay type: toxicity, cell-based
TEST PARAMETERS: read-out: Ratio IC50
One number for each entry.

Study these solved cases before continuing.
smiles=N#Cc1ccc(C(=O)NC(=O)c2ccccc2O)cc1 reported_endpoint="selectivity ratio" numeric_result=4.7
smiles=O=C(NC(=O)C1CCCCC1)c1ccccc1O reported_endpoint="selectivity ratio" numeric_result=9.2
smiles=COc1cc(C(=O)NC(=O)c2ccccc2O)cc(OC)c1OC reported_endpoint="selectivity ratio" numeric_result=6.5
smiles=COc1ccc2cc(C(=O)NC(=O)c3ccccc3O)ccc2c1 reported_endpoint="selectivity ratio" numeric_result=40
smiles=O=C(NC(=O)c1ccc(Cl)cc1Cl)c1ccccc1O reported_endpoint="selectivity ratio" numeric_result=5.5
smiles=CCc1ccc(NC(=O)CC(=O)Nc2ccccc2O)cc1 reported_endpoint="selectivity ratio" numeric_result=1.2
smiles=O=C(NC(=O)c1ccccc1O)c1cccc(CCl)c1 reported_endpoint="selectivity ratio" numeric_result=11
smiles=CCc1ccc(C(=O)n2c(=O)oc3ccccc3c2=O)cc1 reported_endpoint="selectivity ratio" numeric_result=13

// each compound listed below needs its selectivity ratio
1. O=C(NC(=O)c1ccccc1O)c1ccc(OCc2ccccc2)cc1
2. CCc1ccc(C(=O)NC(=S)c2ccccc2O)cc1
3. Nc1ccc(C(=O)NC(=O)c2ccccc2O)cc1
4. CCCCOc1ccc(C(=O)NC(=O)c2ccccc2O)cc1
5. O=C(NC(=O)c1ccccc1O)c1ccccc1O
6. O=C(NC(=O)c1ccccc1O)c1ccc([N+](=O)[O-])cc1
7. O=C(NC(=O)c1ccccc1O)c1ccc2ccccc2c1

Return:
[42, 3.3, 5, 14, 21, 4.9, 20]

###

What selectivity ratio was measured for each of the following?
TEST PROTOCOL: Selectivity index, ratio of IC50 for rat L6 cells to IC50 for chloroquine and pyrimethamine-resistant Plasmodium falciparum K1
Type: toxicity, cell-based
TEST PARAMETERS: read-out: Ratio IC50

Study these solved cases before continuing.
smiles=CCc1ccc(-c2noc(-c3ccccc3O)n2)cc1 result="> 3.7"
smiles=O=C(NC(=O)c1ccccc1O)c1ccc(N2CCOCC2)cc1 result="> 272"
smiles=CS(=O)(=O)c1ccc(C(=O)NC(=O)c2ccccc2O)cc1 result="> 2.7"

// each molecule listed below needs its selectivity ratio
1. O=C(NC(=O)c1ccccc1O)c1ccc(-c2ccccc2)cc1
2. COC(=O)CCC(=O)Nc1ccc(C(=O)NC(=O)c2ccccc2O)cc1
3. O=C(CCCCCCC(=O)Nc1ccc(C(=O)NC(=O)c2ccccc2O)cc1)NO

Return:
> 26
> 2.4
> 29

###

TEST PROTOCOL: Selectivity index, ratio of IC50 for rat L6 cells to IC50 for trypomastigotes of Trypanosoma brucei rhodesiense STIB 900
Type: toxicity, cell-based
TEST PARAMETERS: read-out: Ratio IC50
REPORTED ENDPOINT: selectivity ratio
One number for each entry.

Study these solved cases before continuing.
smiles=CCc1ccc(NC(=O)Nc2ccccc2O)cc1 numeric_result=0.54
smiles=COc1ccc2cc(C(=O)NC(=O)c3ccccc3O)ccc2c1 numeric_result=1.3
smiles=CCc1ccc(NC(=O)CC(=O)Nc2ccccc2O)cc1 numeric_result=0.44
smiles=CCCCOc1ccc(C(=O)NC(=O)c2ccccc2O)cc1 numeric_result=0.23
smiles=CC(C)c1ccc(C(=O)NC(=O)c2ccccc2O)cc1 numeric_result=0.29
smiles=O=C(NC(=O)c1ccccc1O)c1ccc2ccccc2c1 numeric_result=0.78

// each compound listed below needs its selectivity ratio
1. CCc1ccc(C(=O)NNC(=O)c2ccccc2O)cc1
2. CN(C)c1ccc(C(=O)NC(=O)c2ccccc2O)cc1
3. CC(C)(C)c1ccc(C(=O)NC(=O)c2ccccc2O)cc1
4. COc1ccc(C(=O)NC(=O)c2ccccc2O)cc1
5. CCc1ccc(C(=O)NC(=S)c2ccccc2O)cc1
6. O=C(NC(=O)c1ccccc1O)c1ccc(F)cc1
7. O=C(NC(=O)c1ccccc1O)c1cccc(CCl)c1

Return:
1: 0.28; 2: 0.66; 3: 0.038; 4: 0.78; 5: 0.28; 6: 0.6; 7: 0.087

// each compound listed below needs its selectivity ratio
1. COc1cc(C(=O)NC(=O)c2ccccc2O)cc(OC)c1OC
2. CCOc1ccc(C(=O)NC(=O)c2ccccc2O)cc1

Return:
0.26
0.28

###

TEST PROTOCOL: Selectivity index, ratio of IC50 for rat L6 cells to IC50 for intracellular amastigote stage of Trypanosoma cruzi Tulahuen C2C4
Assay type: toxicity, cell-based
TEST PARAMETERS: read-out: Ratio IC50
REPORTED ENDPOINT: selectivity ratio
Numbers only.

Study these solved cases before continuing.
smiles=CC(C)(C)c1ccc(C(=O)NC(=O)c2ccccc2O)cc1 numeric_result=0.38
smiles=COC(=O)c1ccc(C(=O)NC(=O)c2ccccc2O)cc1 numeric_result=2.1
smiles=O=C(NC(=O)c1ccccc1O)c1ccc(F)cc1 numeric_result=0.75
smiles=O=C(NC(=O)C1CCCCC1)c1ccccc1O numeric_result=3.4
smiles=CN(C)c1ccc(C(=O)NC(=O)c2ccccc2O)cc1 numeric_result=1.4
smiles=CCc1ccc(NC(=O)CC(=O)Nc2ccccc2O)cc1 numeric_result=0.76
smiles=CCc1ccc(C(=O)N(C)C(=O)c2ccccc2O)cc1 numeric_result=0.33
smiles=Nc1ccc(C(=O)NC(=O)c2ccccc2O)cc1 numeric_result=0.98

Below: the item to evaluate.
Enquiry: Which selectivity ratio is reported for this compound? `CCc1ccc(C(=O)NNC(=O)c2ccccc2O)cc1`
Return: 2.2

###

What selectivity ratio was measured for each of the following?
TEST PROTOCOL: Selectivity index, ratio of IC50 for rat L6 cells to IC50 for axenic amastigote stage of Leishmania donovani MHOM/ET/67/L82
Assay type: toxicity, cell-based
TEST PARAMETERS: read-out: Ratio IC50
Give bare numbers.

Study these solved cases before continuing.
smiles=CC(C)c1ccc(C(=O)NC(=O)c2ccccc2O)cc1 reported_endpoint="selectivity ratio" numeric_result=14
smiles=CCc1ccc(C(=O)NNC(=O)c2ccccc2O)cc1 reported_endpoint="selectivity ratio" numeric_result=0.77
smiles=CCc1ccc(NC(=O)NC(=O)c2ccccc2O)cc1 reported_endpoint="selectivity ratio" numeric_result=0.7
smiles=CCOc1ccc(C(=O)NC(=O)c2ccccc2O)cc1 reported_endpoint="selectivity ratio" numeric_result=37

Below: the item to evaluate.
Enquiry: Which selectivity ratio is reported for this compound? `CN(C)c1ccc(C(=O)NC(=O)c2ccccc2O)cc1`
Return: 3

###

TEST PROTOCOL: Selectivity index, ratio of IC50 for rat L6 cells to IC50 for trypomastigotes of Trypanosoma brucei rhodesiense STIB 900
Assay type: toxicity, cell-based
TEST PARAMETERS: read-out: Ratio IC50
What selectivity ratio was measured for each of the following?

Study these solved cases before continuing.
smiles=CCc1ccc(-c2noc(-c3ccccc3O)n2)cc1 reported_endpoint="selectivity ratio" result="> 1.6"
smiles=O=C(NC(=O)c1ccc(Cl)cc1Cl)c1ccccc1O reported_endpoint="selectivity ratio" result="< 0.62"
smiles=O=C(NC(=O)C1CCCCC1)c1ccccc1O reported_endpoint="selectivity ratio" result="< 0.55"
smiles=N#Cc1ccc(C(=O)NC(=O)c2ccccc2O)cc1 reported_endpoint="selectivity ratio" result="< 0.55"
smiles=CCc1ccc(C(=O)N(C)C(=O)c2ccccc2O)cc1 reported_endpoint="selectivity ratio" result="< 0.094"

// each compound listed below needs its selectivity ratio
1. Cc1ccc(C(=O)NC(=O)c2ccccc2O)cc1
2. O=C(NC(=O)c1ccccc1O)c1ccc(-c2ccccc2)cc1

Return:
1: < 0.46; 2: > 1.2

// each compound listed below needs its selectivity ratio
1. COC(=O)c1ccc(C(=O)NC(=O)c2ccccc2O)cc1
2. O=C(CCCCCCC(=O)Nc1ccc(C(=O)NC(=O)c2ccccc2O)cc1)NO

Return:
["< 0.83", "> 1.5"]

###

TEST PROTOCOL: Selectivity index, ratio of IC50 for rat L6 cells to IC50 for axenic amastigote stage of Leishmania donovani MHOM/ET/67/L82
Assay type: toxicity, cell-based
TEST PARAMETERS: read-out: Ratio IC50
REPORTED ENDPOINT: selectivity ratio

smiles=O=C(NC(=O)c1ccccc1O)c1ccc(-c2ccccc2)cc1 reported_endpoint="selectivity ratio" result="> 14"
smiles=CCc1ccc(-c2noc(-c3ccccc3O)n2)cc1 reported_endpoint="selectivity ratio" result="> 1"
smiles=O=C(NC(=O)c1ccccc1O)c1ccc2c(c1)OCO2 reported_endpoint="selectivity ratio" result="< 0.47"
smiles=COC(=O)CCC(=O)Nc1ccc(C(=O)NC(=O)c2ccccc2O)cc1 reported_endpoint="selectivity ratio" result="> 2.3"
smiles=O=C(NC(=O)c1ccccc1O)c1ccc(N2CCOCC2)cc1 reported_endpoint="selectivity ratio" result="> 3.1"
smiles=CCc1ccc(C(=O)Nc2cn(C(C)=O)c3ccccc23)cc1 reported_endpoint="selectivity ratio" result="< 0.46"

Below: the item to evaluate.
Enquiry: Which selectivity ratio is reported for this compound? `COC(=O)c1ccc(C(=O)NC(=O)c2ccccc2O)cc1`
Return: < 0.83
